Reference source: ChEMBL document CHEMBL3603806

Target: Phosphatidylinositol 4,5-bisphosphate 3-kinase catalytic subunit alpha isoform (Homo sapiens, UniProt P42336)
Sequence (P42336 whole entry, canonical isoform): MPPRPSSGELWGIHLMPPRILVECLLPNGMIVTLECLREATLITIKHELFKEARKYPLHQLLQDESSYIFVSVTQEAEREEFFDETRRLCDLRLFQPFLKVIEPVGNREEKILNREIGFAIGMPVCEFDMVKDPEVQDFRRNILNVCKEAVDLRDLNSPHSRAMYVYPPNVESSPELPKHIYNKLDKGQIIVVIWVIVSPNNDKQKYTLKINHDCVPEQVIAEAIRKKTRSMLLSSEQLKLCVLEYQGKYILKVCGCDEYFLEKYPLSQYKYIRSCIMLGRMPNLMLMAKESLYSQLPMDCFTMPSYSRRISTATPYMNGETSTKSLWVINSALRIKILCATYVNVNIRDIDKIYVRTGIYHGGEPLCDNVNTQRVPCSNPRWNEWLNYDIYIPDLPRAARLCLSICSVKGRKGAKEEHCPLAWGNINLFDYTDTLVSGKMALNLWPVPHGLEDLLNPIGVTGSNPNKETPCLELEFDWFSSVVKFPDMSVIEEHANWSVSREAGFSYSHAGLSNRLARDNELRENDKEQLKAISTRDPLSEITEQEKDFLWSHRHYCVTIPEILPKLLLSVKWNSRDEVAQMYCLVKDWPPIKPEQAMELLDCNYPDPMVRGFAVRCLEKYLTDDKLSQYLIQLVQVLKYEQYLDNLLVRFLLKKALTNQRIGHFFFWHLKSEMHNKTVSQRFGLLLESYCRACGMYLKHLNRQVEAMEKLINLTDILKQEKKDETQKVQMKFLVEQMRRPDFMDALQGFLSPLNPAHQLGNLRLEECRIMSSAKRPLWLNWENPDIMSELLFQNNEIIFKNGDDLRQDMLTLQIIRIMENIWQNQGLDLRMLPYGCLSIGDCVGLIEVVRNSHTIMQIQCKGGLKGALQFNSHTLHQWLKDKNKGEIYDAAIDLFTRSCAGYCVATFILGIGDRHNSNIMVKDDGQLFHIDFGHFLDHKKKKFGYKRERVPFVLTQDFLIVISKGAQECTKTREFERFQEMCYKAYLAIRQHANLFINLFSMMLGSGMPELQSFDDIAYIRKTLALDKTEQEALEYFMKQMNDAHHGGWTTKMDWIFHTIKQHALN
Assay: Inhibition of PI3Kalpha (unknown origin) assessed as reduction in luminescence signaling by kinase-Glo plus luminescent kinase assay
parameter: IC50
Units required after the number.

compound	measurement
CC(=O)Nc1nc2ccc(-c3cnc(Cl)c(NC(C#N)c4ccccc4)c3)cc2s1 (configuration not stated)	0.49 µM

Let us examine a further case.
Bench note: what IC50 did `CC(=O)Nc1nc2ccc(-c3cnc(Cl)c(NC(=O)c4cccc(Cl)c4)c3)cc2s1` show?
0.98 µM

###

Reported pIC50 by item:
Target: Protein smoothened (Mus musculus, UniProt P56726)
Sequence (P56726 whole entry): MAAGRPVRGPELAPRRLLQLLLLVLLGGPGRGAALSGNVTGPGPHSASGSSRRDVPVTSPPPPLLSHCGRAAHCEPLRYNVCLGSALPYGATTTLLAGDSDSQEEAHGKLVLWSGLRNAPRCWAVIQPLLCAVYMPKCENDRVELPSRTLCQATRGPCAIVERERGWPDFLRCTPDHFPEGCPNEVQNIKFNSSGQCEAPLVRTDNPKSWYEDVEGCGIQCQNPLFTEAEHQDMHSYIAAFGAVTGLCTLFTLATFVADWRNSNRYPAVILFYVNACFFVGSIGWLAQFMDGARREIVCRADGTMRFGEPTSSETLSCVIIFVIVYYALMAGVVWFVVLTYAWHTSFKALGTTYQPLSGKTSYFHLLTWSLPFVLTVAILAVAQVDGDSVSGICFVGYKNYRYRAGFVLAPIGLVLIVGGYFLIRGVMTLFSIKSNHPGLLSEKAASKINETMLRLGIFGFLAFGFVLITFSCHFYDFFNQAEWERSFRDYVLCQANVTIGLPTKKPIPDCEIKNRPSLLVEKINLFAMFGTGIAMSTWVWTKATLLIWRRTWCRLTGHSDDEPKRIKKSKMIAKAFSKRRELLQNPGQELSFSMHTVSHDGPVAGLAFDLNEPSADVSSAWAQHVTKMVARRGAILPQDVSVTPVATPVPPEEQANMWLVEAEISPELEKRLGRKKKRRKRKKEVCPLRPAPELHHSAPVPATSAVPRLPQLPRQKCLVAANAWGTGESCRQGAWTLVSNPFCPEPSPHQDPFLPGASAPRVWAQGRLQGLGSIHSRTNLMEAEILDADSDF
Experiment: Inhibition of SMO in mouse NIH/3T3 cells assessed as inhibition of SAG-induced hedgehog-mediated luminescence signaling by GRE-luciferase reporter gene assay
Lab note — pIC50 values are minus log10 of concentrations in M.

Use the examples below as a reference point.
compound	pIC50
CC(=O)Nc1nc2ccc(-c3cnc(Cl)c(NC(=O)c4cccc(F)c4)c3)cc2s1	5.30
O=C(Nc1cc(-c2ccc3nc(NCC4CC4)sc3c2)cnc1Cl)c1ccccc1	6.82
CC(=O)Nc1nc2ccc(-c3cnc(Cl)c(NC(=O)c4ccc(C)cc4)c3)cc2s1	6.09
CC(=O)Nc1nc2ccc(-c3cnc(Cl)c(NC(=O)c4ccccc4)c3)cc2s1	7.19
CC(=O)Nc1nc2ccc(-c3cnc(Cl)c(NC(=O)c4cccc(Cl)c4)c3)cc2s1	7.39

Bench note: what pIC50 did `O=C(Nc1cc(-c2ccc3nc(NC4CC4)sc3c2)cnc1Cl)c1ccccc1` show?
6.68

Bench note: what pIC50 did `CC(=O)Nc1nc2ccc(-c3cnc(Cl)c(NC(=O)c4ccccc4Cl)c3)cc2s1` show?
5.39

Bench note: what pIC50 did `O=C(Nc1cc(-c2ccc3nc(NCC4CC4)sc3c2)cnc1Cl)c1cccc(Cl)c1` show?
6.72

Bench note: what pIC50 did `CC(=O)Nc1nc2ccc(-c3cnc(Cl)c(NS(=O)(=O)c4ccc(F)cc4)c3)cc2s1` show?
6.92

Bench note: what pIC50 did `CC(=O)Nc1nc2ccc(-c3cnc(Cl)c(NC(=O)Cc4ccccc4)c3)cc2s1` show?
5.47

Bench note: what pIC50 did `CC(=O)Nc1nc2ccc(-c3cnc(Cl)c(NC(=O)c4ccc(F)cc4)c3)cc2s1` show?
6.77
